tested on: HCC827; experiment: Cell proliferation by MTS method, HCC827; format: cell-based; details: Homo sapiens; Table 1, HCC827; read-out: Tumour cell proliferative activity/IC50(nM) Lung Cancer HCC827
Property name: IC50

{"columns": ["Compound", "Measured value"],
 "data": [
  ["COc1cccc(-c2noc(-c3cnc(Oc4ccc5cc(C(=O)N6CCN(Cc7ccc(OCC(F)(F)F)cc7)CC6)n(C)c5c4)cn3)n2)c1 [Example 10]", "< 10 nM"],
  ["Cn1c(C(=O)N2CCN(C(=O)c3ccc(C(F)(F)F)cc3)CC2)cc2ccc(Oc3cnc(-c4nc(-c5ccc(C(F)(F)F)cc5)no4)cn3)cc21 [Example 39]", "< 1000 nM"],
  ["COc1ccccc1-c1noc(-c2cnc(Oc3ccc4cc(C(=O)N5CCN(Cc6ccc(OCC(F)(F)F)cc6)CC5)n(C)c4c3)cn2)n1 [Example 9]", "< 10 nM"]
]}

Problem: # IC50 lookup, item COC(=O)CN1CCN(C(=O)c2cc3ccc(Oc4cnc(-c5nc(-c6ccc(C(F)(F)F)cc6)no5)cn4)cc3n2C)CC1 [Example 37]
Solution: < 1000 nM

Problem: // query: Cn1c(C(=O)N2CCN(Cc3cccc(C(F)(F)F)c3)CC2)cc2ccc(Oc3cnc(-c4nc(-c5ccc(C(F)(F)F)cc5)no4)cn3)cc21 [Example 29]
Solution: < 1000 nM

Problem: // query: Cn1c(C(=O)N2CCN(Cc3ccc(OCC(F)(F)F)cc3)CC2)cc2ccc(Oc3cnc(-c4nc(-c5cccc(C(F)(F)F)c5)no4)cn3)cc21 [Example 8]
Solution: < 1 nM

Problem: // query: Cn1c(C(=O)N2CCN(C(=O)CCl)CC2)cc2ccc(Oc3cnc(-c4nc(-c5ccc(C(F)(F)F)cc5)no4)cn3)cc21 [Example 38]
Solution: < 1000 nM

Problem: // query: Cn1c(C(=O)N2CCN(Cc3cccc(OCC(F)(F)F)c3)CC2)cc2ccc(Oc3cnc(-c4nc(-c5ccc(C(F)(F)F)cc5)no4)cn3)cc21 [Example 32]
Solution: < 100 nM

Problem: // query: Cn1c(C(=O)N2CCN(Cc3ccc(OCC(F)(F)F)cc3)CC2)cc2ccc(Oc3cnc(-c4nc(-c5ccc(Cl)cc5)no4)cn3)cc21 [Example 11]
Solution: < 10 nM

Problem: // query: Cn1c(C(=O)N2CCN(Cc3ccc(OCC(F)(F)F)cc3)CC2)cc2ccc(Oc3cnc(-c4nc(-c5ccc(Br)cc5)no4)cn3)cc21 [Example 12]
Solution: < 10 nM

Problem: // query: Cc1ccc(CN2CCN(C(=O)c3cc4ccc(Oc5cnc(-c6nc(-c7ccc(C(F)(F)F)cc7)no6)cn5)cc4n3C)CC2)cc1 [Example 25]
Solution: < 100 nM

Problem: // query: C=CCn1c(C(=O)N2CCN(Cc3ccc(OCC(F)(F)F)cc3)CC2)cc2ccc(Oc3cnc(-c4nc(-c5ccc(C(F)(F)F)cc5)no4)cn3)cc21 [Example 17]
Solution: < 10 nM

Problem: // query: Cn1c(C(=O)N2CCN(Cc3ccc(OCC(F)(F)F)cc3)CC2)cc2ccc(Oc3cnc(-c4nc(-c5cccc(F)c5)no4)cn3)cc21 [Example 4]
Solution: < 10 nM

Problem: // query: CCN1CCN(C(=O)c2cc3ccc(Oc4cnc(-c5nc(-c6ccc(C(F)(F)F)cc6)no5)cn4)cc3n2C)CC1 [Example 35]
Solution: < 1000 nM

Problem: // query: Cn1c(C(=O)N2CCN(Cc3ccccc3OCC(F)(F)F)CC2)cc2ccc(Oc3cnc(-c4nc(-c5ccc(C(F)(F)F)cc5)no4)cn3)cc21 [Example 33]
Solution: < 1000 nM

Problem: // query: Cn1c(C(=O)N2CCN(Cc3ccc(F)cc3)CC2)cc2ccc(Oc3cnc(-c4nc(-c5ccc(C(F)(F)F)cc5)no4)cn3)cc21 [Example 26]
Solution: < 1000 nM

Problem: // query: CN1CCN(C(=O)c2cc3ccc(Oc4cnc(-c5nc(-c6ccc(C(F)(F)F)cc6)no5)cn4)cc3n2C)CC1 [Example 34]
Solution: < 1000 nM

Problem: // query: CCCN1CCN(C(=O)c2cc3ccc(Oc4cnc(-c5nc(-c6ccc(C(F)(F)F)cc6)no5)cn4)cc3n2C)CC1 [Example 36]
Solution: < 1000 nM

Problem: // query: O=C(c1cc2ccc(Oc3cnc(-c4nc(-c5ccc(C(F)(F)F)cc5)no4)cn3)cc2[nH]1)N1CCN(Cc2ccc(OCC(F)(F)F)cc2)CC1 [Example 14]
Solution: < 100 nM

Problem: // query: Cn1c(C(=O)N2CCN(Cc3ccc(OCC(F)(F)F)cc3)CC2)cc2ccc(Oc3cnc(-c4nc(-c5ccc(C(F)(F)F)cc5)no4)cn3)cc21 [Example 6]
Solution: < 10 nM

Problem: // query: COCCn1c(C(=O)N2CCN(Cc3ccc(OCC(F)(F)F)cc3)CC2)cc2ccc(Oc3cnc(-c4nc(-c5ccc(C(F)(F)F)cc5)no4)cn3)cc21 [Example 18]
Solution: < 100 nM

Problem: // query: Cn1c(C(=O)N2CCN(Cc3ccc(OCC(F)(F)F)cc3)CC2)cc2ccc(Oc3cnc(-c4nc(-c5ccccc5F)no4)cn3)cc21 [Example 3]
Solution: < 10 nM

Problem: // query: COC(=O)Cn1c(C(=O)N2CCN(Cc3ccc(OCC(F)(F)F)cc3)CC2)cc2ccc(Oc3cnc(-c4nc(-c5ccc(C(F)(F)F)cc5)no4)cn3)cc21 [Example 20]
Solution: < 1000 nM

Problem: // query: Cn1c(C(=O)N2CCN(Cc3ccccc3)CC2)cc2ccc(Oc3cnc(-c4nc(-c5ccc(C(F)(F)F)cc5)no4)cn3)cc21 [Example 23]
Solution: < 1000 nM

Problem: // query: Cn1c(C(=O)N2CCN(Cc3ccc(OCC(F)(F)F)cc3)CC2)cc2ccc(Oc3cnc(-c4nc(-c5ccc(F)cc5)no4)cn3)cc21 [Example 2]
Solution: < 10 nM

Problem: // query: CCn1c(C(=O)N2CCN(Cc3ccc(OCC(F)(F)F)cc3)CC2)cc2ccc(Oc3cnc(-c4nc(-c5ccc(C(F)(F)F)cc5)no4)cn3)cc21 [Example 15]
Solution: < 10 nM

----------
System: LNCAP
Assay: Cell proliferation by MTS method, LNCAP
Format: cell-based
Conditions: Homo sapiens, Prostate Cancer
Description: (2) Detection of Cell Proliferation by MTS Method The MTS assay is a method for indirectly determining the number of living cells via colourimetric method. MTS is a newly synthesised tetrazole compound that reflects cell viability, which can be reduced by succinate dehydrogenase in the mitochondria of living cells to an orange-coloured formazan with an absorbance of the reduced product measured at 490 nm being in proportion to the number of living cells, thus reflecting the cell viability. […]
Property name: pIC50
Keep in mind that pIC50 stands for -log10 of concentration in molar terms.

Problem: # pIC50 lookup, item Cn1c(C(=O)N2CCN(Cc3ccc(OCC(F)(F)F)cc3)CC2)cc2ccc(Oc3cnc(-c4nc(-c5ccc(C(F)(F)F)cc5)no4)cn3)cc21 [Example 6]
Solution: 7.99

----------
Consider the following compounds and their measured Kd readings.
biological target: STAT3 protein (Homo sapiens); assay: Binding activity to STAT3 protein by microscale thermophoresis (MST); settings: purified STAT3 recombinant protein
Sequence (P40763 whole entry): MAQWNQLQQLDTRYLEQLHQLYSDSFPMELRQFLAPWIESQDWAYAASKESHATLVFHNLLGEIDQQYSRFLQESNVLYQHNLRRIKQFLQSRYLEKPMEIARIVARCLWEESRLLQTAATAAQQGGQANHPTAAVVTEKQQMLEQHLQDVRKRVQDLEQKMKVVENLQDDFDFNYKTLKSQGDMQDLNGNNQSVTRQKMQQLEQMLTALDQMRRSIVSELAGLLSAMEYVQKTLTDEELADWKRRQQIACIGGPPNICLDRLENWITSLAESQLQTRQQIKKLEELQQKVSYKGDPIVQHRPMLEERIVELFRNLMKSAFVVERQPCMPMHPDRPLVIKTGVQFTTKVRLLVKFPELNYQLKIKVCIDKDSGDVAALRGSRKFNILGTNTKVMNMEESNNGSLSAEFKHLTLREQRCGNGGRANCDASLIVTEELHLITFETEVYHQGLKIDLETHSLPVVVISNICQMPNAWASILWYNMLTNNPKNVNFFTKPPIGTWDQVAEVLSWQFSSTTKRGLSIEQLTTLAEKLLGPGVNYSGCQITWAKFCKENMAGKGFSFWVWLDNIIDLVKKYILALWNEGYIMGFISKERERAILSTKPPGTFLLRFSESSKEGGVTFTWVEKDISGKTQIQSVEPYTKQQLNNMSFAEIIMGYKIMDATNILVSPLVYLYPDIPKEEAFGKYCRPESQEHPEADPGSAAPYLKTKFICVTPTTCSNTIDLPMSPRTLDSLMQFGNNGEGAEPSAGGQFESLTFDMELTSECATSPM

Consider the reported Kd for these compounds:
{"columns": ["Compound", "Assayed target", "Property name", "Measured value"],
 "data": [
  ["CCN1CCN(C(=O)c2cc3ccc(Oc4cnc(-c5nc(-c6ccc(C(F)(F)F)cc6)no5)cn4)cc3n2C)CC1", "STAT3 protein (Homo sapiens)", "Kd", "< 100 nM"],
  ["Cn1c(C(=O)N2CCN(Cc3ccc(OCC(F)(F)F)cc3)CC2)cc2ccc(Oc3cnc(-c4nc(-c5ccccc5F)no4)cn3)cc21", "STAT3 protein (Homo sapiens)", "Kd", "< 10 nM"],
  ["COCCn1c(C(=O)N2CCN(Cc3ccc(OCC(F)(F)F)cc3)CC2)cc2ccc(Oc3cnc(-c4nc(-c5ccc(C(F)(F)F)cc5)no4)cn3)cc21", "STAT3 protein (Homo sapiens)", "Kd", "< 100 nM"],
  ["CN1CCN(C(=O)c2cc3ccc(Oc4cnc(-c5nc(-c6ccc(C(F)(F)F)cc6)no5)cn4)cc3n2C)CC1", "STAT3 protein (Homo sapiens)", "Kd", "< 100 nM"],
  ["COC(=O)CN1CCN(C(=O)c2cc3ccc(Oc4cnc(-c5nc(-c6ccc(C(F)(F)F)cc6)no5)cn4)cc3n2C)CC1", "STAT3 protein (Homo sapiens)", "Kd", "< 100 nM"],
  ["O=C(c1cc2ccc(Oc3cnc(-c4nc(-c5ccc(C(F)(F)F)cc5)no4)cn3)cc2[nH]1)N1CCN(Cc2ccc(OCC(F)(F)F)cc2)CC1", "STAT3 protein (Homo sapiens)", "Kd", "< 100 nM"],
  ["Cn1c(C(=O)N2CCN(Cc3ccc(OCC(F)(F)F)cc3)CC2)cc2ccc(Oc3cnc(-c4nc(-c5ccc(C(F)(F)F)cc5)no4)cn3)cc21", "STAT3 protein (Homo sapiens)", "Kd", "< 10 nM"],
  ["Cc1ccc(CN2CCN(C(=O)c3cc4ccc(Oc5cnc(-c6nc(-c7ccc(C(F)(F)F)cc7)no6)cn5)cc4n3C)CC2)cc1", "STAT3 protein (Homo sapiens)", "Kd", "< 100 nM"],
  ["CCCn1c(C(=O)N2CCN(Cc3ccc(OCC(F)(F)F)cc3)CC2)cc2ccc(Oc3cnc(-c4nc(-c5ccc(C(F)(F)F)cc5)no4)cn3)cc21", "STAT3 protein (Homo sapiens)", "Kd", "< 100 nM"],
  ["COc1ccc(CN2CCN(C(=O)c3cc4ccc(Oc5cnc(-c6nc(-c7ccc(C(F)(F)F)cc7)no6)cn5)cc4n3C)CC2)cc1", "STAT3 protein (Homo sapiens)", "Kd", "< 100 nM"]
]}

Problem: # Kd lookup, item Cn1c(C(=O)N2CCN(Cc3ccccc3OCC(F)(F)F)CC2)cc2ccc(Oc3cnc(-c4nc(-c5ccc(C(F)(F)F)cc5)no4)cn3)cc21
Solution: < 100 nM

Problem: // query: Cn1c(C(=O)N2CCN(Cc3ccc(C(F)(F)F)cc3)CC2)cc2ccc(Oc3cnc(-c4nc(-c5ccc(C(F)(F)F)cc5)no4)cn3)cc21
Solution: < 1000 nM

Problem: // query: Cn1c(C(=O)N2CCN(Cc3ccc(F)cc3)CC2)cc2ccc(Oc3cnc(-c4nc(-c5ccc(C(F)(F)F)cc5)no4)cn3)cc21
Solution: < 1000 nM

Problem: // query: CCCN1CCN(C(=O)c2cc3ccc(Oc4cnc(-c5nc(-c6ccc(C(F)(F)F)cc6)no5)cn4)cc3n2C)CC1
Solution: < 100 nM

Problem: // query: Cn1c(C(=O)N2CCN(C(=O)c3ccc(C(F)(F)F)cc3)CC2)cc2ccc(Oc3cnc(-c4nc(-c5ccc(C(F)(F)F)cc5)no4)cn3)cc21
Solution: < 100 nM
